B1: EPB41L3 (parent)
chain: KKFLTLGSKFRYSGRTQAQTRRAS

- Variants of: B1
- test details: protein stability index of a GFP-peptide fusion (GPS, HEK-293T) (PSI 1-6); higher = more stable;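 also: lentivirally expressed fusions sorted by FACS into six bins by GFP to DsRed ratio, PSI derived from sequencing read proportions per bin multiplied by bin number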
- condition parameters: c terminus: a fixed tail appended
protein stability index by entry:

- mutation name: "A23C"
  protein stability index: 2.24
- mutation name: "F3T"
  protein stability index: 3.48
- mutation name: "K2D"
  protein stability index: 2.44
- mutation name: "R11G"
  protein stability index: 3.57
- mutation name: "Y12P"
  protein stability index: 3.23
- mutation name: "F3E"
  protein stability index: 3.11
- mutation name: "R22Q"
  protein stability index: 2.44
- mutation name: "G7A"
  protein stability index: 2.95
- mutation name: "L6T"
  protein stability index: 3.88
- mutation name: "A18N"
  protein stability index: 3.55
